test system: KB-3-1; assay: Cytotoxic Profiling of Annotated Libraries Using Quantitative High-Throughput Screening (AID 1296008); settings: Five cell lines viability, CellTiter-Glo ATP luminescence, 48-72 h; hits give low values; also: % is scaled to controls: 0 for no effect and ±100 for the full control effect; nearly all actives have a fitted effect of over 60% in size
Results filed as inconclusive are left out.
Metric: max response (%)

>  <Compound>
COC[C@H]1OC(=O)c2coc3c2[C@@]1(C)C1=C(C3=O)[C@@H]2CC[C@H](O)[C@@]2(C)C[C@@H]1OC(C)=O

>  <Recorded value>
-14.9

$$$$
>  <Compound>
O=[N+]([O-])c1c2ccccc2cc2ccccc12

>  <Recorded value>
-16.7

$$$$
>  <Compound>
CCCCCCCCc1ccc(O)cc1

>  <Recorded value>
-0.951

$$$$
>  <Compound>
COC1=C[C@@H]2[C@@H]3Cc4ccc(OC)c(O)c4[C@]2(CCN3C)CC1=O

>  <Recorded value>
1.47

$$$$
>  <Compound>
Cc1ccc(Cl)c(O)c1

>  <Recorded value>
-1.89

$$$$
>  <Compound>
C=CC(=O)NCNC(=O)C=C

>  <Recorded value>
1.85

$$$$
>  <Compound>
CC[N+]1(CCOC(=O)C(O)(c2ccccc2)c2ccccc2)CCCCC1

>  <Recorded value>
1.27

$$$$
>  <Compound>
Nc1ccc(N=Nc2ccccc2)cc1

>  <Recorded value>
-15.1

$$$$
>  <Compound>
Oc1ccc2c3c1O[C@H]1[C@@H](O)C=C[C@H]4[C@@H](C2)NCC[C@@]341

>  <Recorded value>
-5.17

$$$$
>  <Compound>
CCCCC(CC)COC(=O)c1ccccc1C(=O)OCC(CC)CCCC (stereo not given)

>  <Recorded value>
-15.4

$$$$

----------
Test: qHTS Screen of the MIPE 4.0 Collection Against Ewings Sarcoma (RDES) (AID 1259252); also: nearly all actives have a fitted effect of over 35% in size
Conditions: RD-ES Ewing sarcoma viability, CellTiter-Glo, 48 h; series mostly up to 45.8 µM
Method: There is a large unmet medical need for treatments for Ewing sarcoma, a pediatric sarcoma. […] Using the NCATS developed oncology compound library called the Mechanism of Interrogation Plate (MIPE), four Ewing sarcoma cell lines were evaluated (TC32, TC71, RDES, EW8). Compounds, in a 12-point titration series, were incubated with cells for 48 hours and the read out was cell viability (CellTiter-Glo from Promega). […]
Results filed as inconclusive are left out. The source made the active and inactive calls. Calls come from the whole dose curve; as a rule, active = well fitted inhibition curve with a large enough effect; inconclusive = small, poorly fitted or top-dose-only effect; inactive = no such curve, though single readings can be large or run the other way.
Outcomes: 1 (active), 0 (inactive)

>  <Compound>
COc1cc2cc(c1Cl)N(C)C(=O)C[C@H](OC(=O)C(C)C)[C@]1(C)O[C@H]1[C@H](C)[C@@H]1C[C@@](O)(NC(=O)O1)[C@H](OC)C=CC=C(C)C2

>  <Label class>
0

$$$$
>  <Compound>
CC(C)(O)C=CC(=O)[C@](C)(O)[C@H]1[C@H](O)C[C@]2(C)[C@@H]3CC=C4[C@@H](C=C(O)C(=O)C4(C)C)[C@]3(C)C(=O)C[C@@]12C

>  <Label class>
1

$$$$
>  <Compound>
O=C1CCC[C@@H]2[C@H]3CCCN4CCC[C@@H](CN12)[C@@H]34

>  <Label class>
0

$$$$
>  <Compound>
CCCC[N+]1(C)[C@H]2CC(OC(=O)[C@H](CO)c3ccccc3)C[C@H]1[C@H]1O[C@H]12 (some centres undefined)

>  <Label class>
0

$$$$
>  <Compound>
CC[C@@H]1[C@@H](C)O[C@@](O)([C@@H](C)[C@H](O)[C@H](C)[C@H]2OC(=O)C=CC=C[C@@H](C)[C@@H]([C@@H](C)[C@@H](O)[C@H](C)[C@@]3(O)C[C@H](O[C@H]4C[C@H](O)[C@H](O)[C@H](C)O4)[C@H](CC)[C@@H](C)O3)OC(=O)C=CC=C[C@@H]2C)C[C@H]1O[C@H]1C[C@H](O)[C@H](O)[C@H](C)O1

>  <Label class>
1

$$$$
>  <Compound>
COCC1(CO)C(=O)C2CCN1CC2 (centres undefined)

>  <Label class>
1

$$$$
>  <Compound>
CCN1C[C@]2(OC(=O)c3ccccc3NC(C)=O)CC[C@H](OC)[C@@]34[C@H]5CC6[C@@H](OC)C[C@](O)(C(C[C@@H]23)[C@@H]14)[C@@]5(O)[C@@H]6OC

>  <Label class>
0

$$$$
>  <Compound>
CN(C)[C@@H]1C(=O)C(C(N)=O)=C(O)[C@@]2(O)C(=O)C3=C(O)c4c(O)cccc4[C@@](C)(O)[C@H]3[C@H](O)[C@@H]12

>  <Label class>
0

$$$$
>  <Compound>
O=[N+]([O-])c1ncc[nH]1

>  <Label class>
0

$$$$

----------
test system: MKL-2; test: qHTS assay to identify novel small-molecules to repurpose for Merkel cell carcinoma treatment (AID 1296009); details: MCC and control cell lines, CellTiter-Glo viability, 72 h; series mostly up to 46 µM; also: nearly all actives have a fitted effect of over 60% in size
Results filed as inconclusive are left out. Active and inactive are the calls of the source. Calls come from the whole dose curve; as a rule, active = well fitted inhibition curve with a large enough effect; inconclusive = small, poorly fitted or top-dose-only effect; inactive = flat fitted curve, though single readings scatter.
Outcomes: True (active), False (inactive)

>  <Compound>
Cc1c(N)nc([C@H](CC(N)=O)NC[C@@H](N)C(N)=O)nc1C(=O)N[C@H](C(=O)N[C@@H](C)[C@H](O)[C@@H](C)C(=O)N[C@@H](C(=O)NCCc1nc(-c2nc(C(=O)NCCC[S+](C)C)cs2)cs1)[C@@H](C)O)C(O[C@H]1O[C@H](CO)[C@H](O)[C@@H](O)[C@@H]1O[C@H]1O[C@H](CO)[C@@H](O)[C@H](OC(N)=O)[C@H]1O)c1cnc[nH]1 (stereo partly drawn)

>  <System tested>
MKL-2

>  <Label class>
False

$$$$
>  <Compound>
C[C@@]12OC(=O)[C@]1([C@@H](O)[C@@H]1C=CCCC1)NC(=O)[C@H]2CCCl

>  <System tested>
MKL-2

>  <Label class>
True

$$$$
>  <Compound>
CS(=O)(=O)c1ccc(C(=O)C2C(=O)CCCC2=O)c([N+](=O)[O-])c1

>  <System tested>
MKL-2

>  <Label class>
False

$$$$
>  <Compound>
CC(=Cc1csc(C)n1)[C@@H]1C[C@H]2O[C@]2(C)CCC[C@H](C)[C@@H](O)[C@@H](C)C(=O)C(C)(C)[C@@H](O)CC(=O)O1

>  <System tested>
MKL-2

>  <Label class>
False

$$$$
>  <Compound>
CCC(=O)OC1CCC2C3CCC4=CC(=O)CC[C@@]4(C)C3CC[C@]12C (stereo partly drawn)

>  <System tested>
MKL-2

>  <Label class>
False

$$$$
>  <Compound>
C#C[C@]1(O)C=C[C@@H]2[C@@H]3CCC4=CC(=O)CC[C@@H]4[C@H]3CC[C@@]21CC

>  <System tested>
MKL-2

>  <Label class>
False

$$$$
>  <Compound>
C[C@]12CC[C@@H]3[C@@H](CCC4=CC(=O)CC[C@@H]43)[C@@H]1CC[C@@H]2OC(=O)CCc1ccccc1

>  <System tested>
MKL-2

>  <Label class>
False

$$$$
>  <Compound>
O=C(N[C@@H](COc1ccc2[nH]c(=O)[nH]c2c1)c1ccccc1)c1cccn(Cc2ccc(F)c(F)c2)c1=O

>  <System tested>
MKL-2

>  <Label class>
False

$$$$

----------
assay: Cell Viability - LYMP1-003 - Assay at 24 hr (AID 963); settings: LYMP1-003 lymphoblastoid cell viability; series mostly up to 92.2 µM
Calls of active or inactive are those of the source. Calls follow the shape of the dose curve; as a rule, active = well fitted cell-killing curve with a large enough effect; inconclusive = small, poorly fitted or top-dose-only effect; inactive = flat fitted curve, though single readings scatter.
Outcomes: active, inactive

>  <Compound>
CC(=O)[O][Hg][c]1ccccc1

>  <Label class>
active

$$$$
>  <Compound>
O=[N+]([O-])c1c2ccccc2cc2ccccc12

>  <Label class>
inactive

$$$$
>  <Compound>
CCCCC(CC)COC(=O)c1ccccc1C(=O)OCC(CC)CCCC (stereo not given)

>  <Label class>
inactive

$$$$
>  <Compound>
O=[N+]([O-])c1cc([N+](=O)[O-])c2ccccc2c1

>  <Label class>
inactive

$$$$
>  <Compound>
CN(C)[C@@H]1C(=O)C(C(N)=O)=C(O)[C@@]2(O)C(=O)C3=C(O)c4c(O)cccc4[C@@](C)(O)[C@H]3[C@H](O)[C@@H]12

>  <Label class>
inactive

$$$$

----------
target: N-terminal Xaa-Pro-Lys N-methyltransferase 1 (Homo sapiens) (UniProt Q9BV86); test: qHTS Assay for Inhibitors of N-terminal methyltransferase 1 (NTMT1): LOPAC validation of the NTMT1 SAHH-coupled ThioGlo3 Assay (AID 1347143); settings: recombinant NTMT1, SAHH-coupled ThioGlo3 fluorescence; series mostly up to 114 µM;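 also: SAH from peptide methylation measured as thiol fluorescence via SAHH coupling and ThioGlo3; nearly all actives have a fitted effect of over 70% in size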
Sequence (Q9BV86 whole entry, looked up): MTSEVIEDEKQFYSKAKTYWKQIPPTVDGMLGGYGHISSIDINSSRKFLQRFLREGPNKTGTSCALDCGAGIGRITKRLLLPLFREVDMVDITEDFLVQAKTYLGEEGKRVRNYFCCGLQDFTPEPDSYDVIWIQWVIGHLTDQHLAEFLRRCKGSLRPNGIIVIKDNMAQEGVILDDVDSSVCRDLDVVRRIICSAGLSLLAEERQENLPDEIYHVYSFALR
Records with an inconclusive call do not appear. Activity calls are given as the source filed them. The call rests on the fitted dose curve; in most records, active means well fitted inhibition curve with a large enough effect; inconclusive means small, poorly fitted or top-dose-only effect; inactive means no such curve, though single readings can be large or run the other way.
Outcomes: active, inactive

>  <Molecule>
C[N+]1(C)C2CC(OC(=O)[C@H](CO)c3ccccc3)CC1C1OC12 (stereo partly drawn)

>  <System tested>
N-terminal Xaa-Pro-Lys N-methyltransferase 1 (Homo sapiens) (UniProt Q9BV86)

>  <Label class>
inactive

$$$$
>  <Molecule>
CS(=N)(=O)CC[C@H](N)C(=O)O (stereo partly drawn)

>  <System tested>
N-terminal Xaa-Pro-Lys N-methyltransferase 1 (Homo sapiens) (UniProt Q9BV86)

>  <Label class>
inactive

$$$$
>  <Molecule>
c1ccc(C2(c3ccccc3)CC2C2=NCCN2)cc1 (stereo not drawn)

>  <System tested>
N-terminal Xaa-Pro-Lys N-methyltransferase 1 (Homo sapiens) (UniProt Q9BV86)

>  <Label class>
inactive

$$$$
>  <Molecule>
O=C(Cc1ccc(Cl)c(Cl)c1)N1CCCCC1CN1CCCC1 (stereo not drawn)

>  <System tested>
N-terminal Xaa-Pro-Lys N-methyltransferase 1 (Homo sapiens) (UniProt Q9BV86)

>  <Label class>
inactive

$$$$
>  <Molecule>
Clc1cnc(Oc2ccc(Oc3ncc(Cl)cc3Cl)cc2)c(Cl)c1

>  <System tested>
N-terminal Xaa-Pro-Lys N-methyltransferase 1 (Homo sapiens) (UniProt Q9BV86)

>  <Label class>
inactive

$$$$
>  <Molecule>
CC[C@@]1(O)C(=O)OCc2c1cc1n(c2=O)Cc2cc3ccccc3nc2-1

>  <System tested>
N-terminal Xaa-Pro-Lys N-methyltransferase 1 (Homo sapiens) (UniProt Q9BV86)

>  <Label class>
active

$$$$
>  <Molecule>
NC1CC1c1ccccc1 (stereo not drawn)

>  <System tested>
N-terminal Xaa-Pro-Lys N-methyltransferase 1 (Homo sapiens) (UniProt Q9BV86)

>  <Label class>
inactive

$$$$
>  <Molecule>
C[N+]1(C)C2CCC1CC(OC(=O)C(CO)c1ccccc1)C2 (stereo not drawn)

>  <System tested>
N-terminal Xaa-Pro-Lys N-methyltransferase 1 (Homo sapiens) (UniProt Q9BV86)

>  <Label class>
inactive

$$$$
